biological target: T1, Recombinant Human DLL4 (human, UniProt Q9NR61 27-524); assay: ELISA, DLL4 coated on plate, Fab at 100 nM, absorbance at 450 nm minus blank
T1 construct: also called delta-like protein 4; rHuman DLL4
Recorded measurements of ELISA Signal-blank (100 nM Fab), one per entry
Output: the number by itself.

- binder: "Fab VH5-51_IGHD5-18*01>3_IGHJ4*01 G100K/G104T G24T/S28R/G35V (H:KT TRV) & V3-4_IGLJ1*01 L24A (Fab, V domains shown, Fab; expressed in E. coli with CH1 (Plasmid A, His6 and Flag tags) and lambda CL (Plasmid E); also called H:KT TRV & L24A) VH: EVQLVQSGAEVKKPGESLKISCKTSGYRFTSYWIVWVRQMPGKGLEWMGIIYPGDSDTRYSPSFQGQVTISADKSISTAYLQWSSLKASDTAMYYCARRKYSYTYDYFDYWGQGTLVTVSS VL: QTVVTQEPSFSVSPGGTVTLTCGASSGSVSTSYYPSWYQQTPGQAPRTLIYSTNTRSSGVPDRFSGSILGNKAALTITGAQADDESDYYCVLYMGSGISYVFGTGTKVTVL"
  test result: 0.244

Turning now to a further binder:
For the binder Fab VH5-51_IGHD5-18*01>3_IGHJ4*01 G100K/G104T G24T/S28R/G35V (H:KT TRV) & V3-4_IGLJ1*01 M94A (Fab, V domains shown, Fab; expressed in E. coli with CH1 (Plasmid A, His6 and Flag tags) and lambda CL (Plasmid E); also called H:KT TRV & M94A) VH: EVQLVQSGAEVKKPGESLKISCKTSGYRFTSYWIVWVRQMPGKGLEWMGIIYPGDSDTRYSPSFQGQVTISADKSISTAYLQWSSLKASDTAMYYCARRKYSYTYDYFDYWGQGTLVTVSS VL: QTVVTQEPSFSVSPGGTVTLTCGLSSGSVSTSYYPSWYQQTPGQAPRTLIYSTNTRSSGVPDRFSGSILGNKAALTITGAQADDESDYYCVLYAGSGISYVFGTGTKVTVL , give its reported ELISA Signal-blank (100 nM Fab).
0.277
